molecular target: Voltage-gated inwardly rectifying potassium channel KCNH2 (Homo sapiens) (UniProt Q12809); assay: Human Ether-a-go-go-Related Gene (hERG) channel small molecule antagonists: fluorescence cell-based qHTS assay (AID 1671200); details: hERG-U2OS cells, FluxOR thallium flux fluorescence; series mostly up to 76.8 µM; further: nearly all actives have a fitted effect of over 50% in size
Sequence (Q12809 whole entry, looked up): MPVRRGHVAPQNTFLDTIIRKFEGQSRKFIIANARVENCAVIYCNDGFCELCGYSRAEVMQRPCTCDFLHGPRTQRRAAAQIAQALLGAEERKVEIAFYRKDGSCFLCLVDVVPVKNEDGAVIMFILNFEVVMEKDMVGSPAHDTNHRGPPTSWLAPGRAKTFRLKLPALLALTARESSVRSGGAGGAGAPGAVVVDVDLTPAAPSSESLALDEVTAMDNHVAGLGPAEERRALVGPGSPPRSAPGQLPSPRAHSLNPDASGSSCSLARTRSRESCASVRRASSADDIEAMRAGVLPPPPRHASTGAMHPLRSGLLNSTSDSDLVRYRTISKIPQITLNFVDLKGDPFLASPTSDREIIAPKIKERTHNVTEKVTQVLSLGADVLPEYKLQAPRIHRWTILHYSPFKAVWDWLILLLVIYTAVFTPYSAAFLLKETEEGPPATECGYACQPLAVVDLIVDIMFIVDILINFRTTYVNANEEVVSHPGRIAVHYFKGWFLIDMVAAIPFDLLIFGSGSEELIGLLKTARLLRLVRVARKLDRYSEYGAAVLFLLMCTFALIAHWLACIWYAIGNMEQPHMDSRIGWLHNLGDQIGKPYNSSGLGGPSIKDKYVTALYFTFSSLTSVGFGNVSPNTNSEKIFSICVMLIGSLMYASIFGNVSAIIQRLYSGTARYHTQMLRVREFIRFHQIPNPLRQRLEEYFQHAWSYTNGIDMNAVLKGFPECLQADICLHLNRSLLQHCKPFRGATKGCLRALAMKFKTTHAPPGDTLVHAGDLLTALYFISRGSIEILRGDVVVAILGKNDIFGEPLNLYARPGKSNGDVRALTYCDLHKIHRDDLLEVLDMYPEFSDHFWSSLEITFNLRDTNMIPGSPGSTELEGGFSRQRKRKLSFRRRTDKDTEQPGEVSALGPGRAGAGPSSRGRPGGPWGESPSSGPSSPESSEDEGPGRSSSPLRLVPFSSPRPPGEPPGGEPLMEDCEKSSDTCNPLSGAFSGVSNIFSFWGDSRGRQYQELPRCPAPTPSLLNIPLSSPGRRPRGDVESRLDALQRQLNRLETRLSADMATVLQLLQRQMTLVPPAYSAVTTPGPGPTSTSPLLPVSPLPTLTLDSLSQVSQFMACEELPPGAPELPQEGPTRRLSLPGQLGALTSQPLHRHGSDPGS
Inconclusive results are not listed. Active and inactive are the calls of the source. The call rests on the fitted dose curve; in most records, active means well fitted inhibition curve with a large enough effect in the repeat runs; inconclusive means weak or mixed curves; inactive means flat fitted curve, though single readings scatter.
Outcome codes: y for active, n for inactive

| molecule | group |
| --- | --- |
| CCCCCCCCC(CCCCCC)C(=O)O (stereo not drawn) | n |
| Oc1cc2c(cc1O)[C@H]1c3ccc(O)c(O)c3OC[C@@]1(O)C2 | n |
| CCCCCCCC/C=C\CCCCCCCCCCCC(=O)O | n |
| O=C(/C=C/c1ccccc1)OCCc1ccccc1 | y |
| Cc1cc(C)cc(N)c1 | n |
| Cc1cscn1 | n |
| COc1ccccc1NC(=O)c1cc2ccccc2cc1O | n |
| CCCCCCCCCI | n |
| CCCCCC[C@@H](O)C/C=C\CCCCCCCC(=O)O | n |
| CCC1(CO)COCOC1 | n |
| c1cc(N(CC2CO2)CC2CO2)ccc1Cc1ccc(N(CC2CO2)CC2CO2)cc1 (stereo not drawn) | n |
| CC(C)C[C@H](NC(=O)[C@H](CCc1ccccc1)NC(=O)CN1CCOCC1)C(=O)N[C@@H](Cc1ccccc1)C(=O)N[C@@H](CC(C)C)C(=O)[C@@]1(C)CO1 | n |
| O=C(Nc1cccc2c(=O)cc(-c3nn[nH]n3)oc12)c1ccc(OCCCCc2ccccc2)cc1 | n |
